# Test system: fibrosarcoma cell line
# assay.notes: Ferroptosis screening model, MTT cell viability assay with Erastin induction
# Assay type: cell-based
# setup.conditions: 72 h, inhibition of ferroptosis induced by Erastin 10 μM, MTT; average of three tests
Exercise: state measured EC50 for each of the compounds provided.
Give bare numbers, in nM.

> print(dat)
                              line.notation  assay.metric  quantitative.result
1  C=C(c1ccc2c(c1)Nc1ccccc1S2)c1cnc2[nH]ncc2c1          EC50                   11
2  C=C(c1ccc2c(c1)Nc1ccccc1S2)c1ccc2c(c1)OCCO2          EC50                   37
3  C=C(c1ccc2c(c1)Nc1ccccc1S2)c1cn2cc(C(=O)N[C@H](C)c3ccccc3)nc2cn1          EC50                   76

Take each entry in turn and give its EC50.
1. C=C(c1ccc2c(c1)Nc1ccccc1S2)c1ccc2ncccc2c1
2. C=C(c1ccc2c(c1)Nc1ccccc1S2)c1cnc2c(cnn2C2CCNCC2)c1
3. C=C(c1ccc2c(c1)Nc1ccccc1S2)c1ccc2c(C=O)c[nH]c2c1
4. C=C(c1ccc2c(c1)Nc1ccccc1S2)c1cnc2nc(C(=O)NCCN(C)C)cn2c1
5. C=C(c1ccc2c(c1)Nc1ccccc1S2)c1cnc2c(cnn2CC)c1
6. C=C(c1ccc2c(c1)Nc1ccccc1S2)c1cnc2c(cnn2CC2CCN(C(=O)OC(C)(C)C)CC2)c1
7. C=C(c1ccc2c(c1)Nc1ccccc1S2)c1cnc2c(cnn2C2CCN(C(=O)OC(C)(C)C)CC2)c1

A.
1. 6
2. 16
3. 15
4. 14
5. 67
6. 76
7. 29

Hey, can you go through the list below and give me EC50 for every item?
1. C=C(c1cnc2c(c1)CCN2)c1ccc2c(c1)Nc1ccccc1S2
2. C=C(c1ccc2c(c1)Nc1ccccc1S2)c1cnc2sccc2c1
3. C=C(c1ccc2c(c1)Nc1ccccc1S2)c1cn2cc(C(=O)NC3CCOCC3)nc2cn1
4. C=C(c1ccc2c(c1)Nc1ccccc1S2)c1cnc2c(cnn2CC2CCOCC2)c1

A.
89
74
67
38

For every record below, what is its EC50?
1. C=C(c1ccc2c(c1)Nc1ccccc1S2)c1ccc2c(c1)SCC(=O)N2
2. C=C(c1ccc2c(c1)Nc1ccccc1S2)c1cn2cc(C(=O)N[C@H](C)c3cccc4ccccc34)nc2cn1
3. C=C(c1ccc2c(c1)Nc1ccccc1S2)c1cnc2c(cnn2C2CCN(C)CC2)c1

A.
[33, 55, 0.2]

---

# Tested on: fibrosarcoma cell line
# assay.notes: Ferroptosis screening model, MTT cell viability assay with Erastin induction
# Format: cell-based
# setup.conditions: 72 h, inhibition of ferroptosis induced by Erastin 10 μM, MTT; average of three tests
Field 'label' (enum: Y / N). Set to Y when EC50 is strictly under 40 nM; else N.

> print(dat)
                              line.notation  assigned.class
1  C=C(c1ccc2c(c1)Nc1ccccc1S2)c1cnc2c(ccn2C)c1               N
2  C=C(c1ccc2c(c1)CCN2C(C)=O)c1ccc2c(c1)Nc1ccccc1S2               Y
3  C=C(c1ccc2c(c1)Nc1ccccc1S2)c1cn2ccnc2c(N2CCOCC2)n1               Y
4  C=C(c1ccc2c(c1)Nc1ccccc1S2)c1cnc2c(cnn2CCOC)c1               N
5  C=C(c1ccc2c(c1)Nc1ccccc1S2)c1cnc2c(cnn2C2CN(C(=O)OC(C)(C)C)C2)c1               N
6  C=C(c1ccc2c(c1)Nc1ccccc1S2)c1ccc2c(c1)OC(F)(F)O2               Y
7  C=C(c1ccc2c(c1)Nc1ccccc1S2)c1ccc2c(C(=O)NCCN3CCOCC3)c[nH]c2c1               Y
8  C=C(c1ccc2c(c1)Nc1ccccc1S2)c1ccc2cc(C(=O)NCCN3CCOCC3)[nH]c2c1               Y

Attention now shifts to the item below.
Q. Could you please tell me whether EC50 recorded for C=C(c1ccc2c(c1)Nc1ccccc1S2)c1cn2cc(C(=O)NCC3CCOCC3)nc2cn1 is less than 40 nM?
A. N
